ASSAY SETUP: in n-butanol, 318.15 K
EXPERIMENTAL READOUT: solubility (mole fraction)

What value of measured solubility (mole fraction) is listed for N#Cc1cccc([N+](=O)[O-])c1C#N ?
0.00171

###

ASSAY SETUP: in isopropanol, 323.15 K
EXPERIMENTAL READOUT: solubility (mole fraction)
Returns: the value as a bare number; no unit string appended.

What value of measured solubility (mole fraction) is listed for N#Cc1cccc([N+](=O)[O-])c1C#N ?
0.00305

###

ASSAY SETUP: in ethyl acetate, 318.15 K
EXPERIMENTAL READOUT: solubility (mole fraction)
Returns: the value as a bare number; no unit string appended.

What value of measured solubility (mole fraction) is listed for N#Cc1cccc([N+](=O)[O-])c1C#N ?
0.0555

Values compiled from BigSolDB 2.1.
